- METHOD NOTES: Biodistribution in rabbits: biological half life in the brain by gamma camera imaging
- Format: in vivo, Japanese white rabbits (male)
- CONDITION PARAMETERS: rabbit, in vivo
VALUE KIND: Biological half-life in brain, First phase (min)
Only the number, expressed in min, is required.

1. CCCC(C)NCC(NCCNCC(C)(C)S)C(C)(C)S (stereo not shown) [Compound 11l] : 11
2. CC(C)(S)CNCCNC(CN1CCCCC1)C(C)(C)S (stereo not shown) [Compound 11g] : 5
3. CCCCCCNCC(NCCNCC(C)(C)S)C(C)(C)S (stereo not shown) [Compound 11m] : 3
4. CC(C)(S)CNCCNC(CN1CCC(c2ccccc2)CC1)C(C)(C)S (stereo not shown) [Compound 11x] : 10
5. CN1CCN(CC(NCCNCC(C)(C)S)C(C)(C)S)CC1 (stereo not shown) [Compound 11i] : 8
6. CCCCCNCC(NCCNCC(C)(C)S)C(C)(C)S (stereo not shown) [Compound 11d] : 18

What the record says about CC(C)(S)CNCCNC(CN1CCOCC1)C(C)(C)S (stereo not shown) [Compound 11k] : Biological half-life in brain, First phase is 4

What the record says about CC(C)(S)CNCCNC(CN1CCCC1)C(C)(C)S (stereo not shown) [Compound 11r] : Biological half-life in brain, First phase is 3

What the record says about CC1CCN(CC(NCCNCC(C)(C)S)C(C)(C)S)CC1 (stereo not shown) [Compound 11p] : Biological half-life in brain, First phase is 3

What the record says about CCCCSC(C)(C)CNCCNC(CN1CCC(C)CC1)C(C)(C)S (stereo not shown) : Biological half-life in brain, First phase is 7

====

- METHOD NOTES: Biodistribution in rabbits: biological half life in the brain by gamma camera imaging
- Assay type: in vivo, Japanese white rabbits (male)
- CONDITION PARAMETERS: rabbit, in vivo
VALUE KIND: Biological half-life in brain, First phase (rate)
The reply must contain the numeric value and, after it, the unit.

1) CC(C)(S)CNCCNC(CN1CCCCC1)C(C)(C)S (centres unmarked) [Compound 11g] : 23%

What the record says about CCCC(C)NCC(NCCNCC(C)(C)S)C(C)(C)S (centres unmarked) [Compound 11l] : Biological half-life in brain, First phase (rate) is 34%

What the record says about CC(C)(S)CNCCNC(CN1CCOCC1)C(C)(C)S (centres unmarked) [Compound 11k] : Biological half-life in brain, First phase (rate) is 39%

What the record says about CC(C)(S)CNCCNC(CN1CCCC1)C(C)(C)S (centres unmarked) [Compound 11r] : Biological half-life in brain, First phase (rate) is 28%

What the record says about CC(C)(S)CNCCNC(CN1CCNCC1)C(C)(C)S (centres unmarked) [Compound 11h] : Biological half-life in brain, First phase (rate) is 44%

====

- METHOD NOTES: Biodistribution in rabbits: biological half life in the brain by gamma camera imaging
- Format: in vivo, Japanese white rabbits (male)
- CONDITION PARAMETERS: rabbit, in vivo
Output Satisfied for Biological half-life in brain, First phase (rate) not less than 20%; output Not satisfied otherwise.

1. CCCCCCNCC(NCCNCC(C)(C)S)C(C)(C)S (centres unmarked) [Compound 11m] : Satisfied

Query: Given the entry CCCCCNCC(NCCNCC(C)(C)S)C(C)(C)S (centres unmarked) [Compound 11d] , answer whether its Biological half-life in brain, First phase (rate) meets or surpasses 20%.
Reply: Satisfied

Query: Given the entry CC1CCN(CC(NCCNCC(C)(C)S)C(C)(C)S)CC1 (centres unmarked) [Compound 11p] , answer whether its Biological half-life in brain, First phase (rate) meets or surpasses 20%.
Reply: Not satisfied

Query: Given the entry CCCCSC(C)(C)CNCCNC(CN1CCC(C)CC1)C(C)(C)S (centres unmarked) , answer whether its Biological half-life in brain, First phase (rate) meets or surpasses 20%.
Reply: Satisfied

Query: Given the entry CCCCN(CC)CC(NCCNCC(C)(C)S)C(C)(C)S (centres unmarked) [Compound 11n] , answer whether its Biological half-life in brain, First phase (rate) meets or surpasses 20%.
Reply: Satisfied

====

- METHOD NOTES: Biodistribution in rabbits: biological half life in the brain by gamma camera imaging
- Type: in vivo, Japanese white rabbits (male)
- CONDITION PARAMETERS: rabbit, in vivo
# Biological half-life in brain, First phase listing for each entry below
Only the number, expressed in min, is required.

1) CC(C)(S)CNCCNC(CN1CCNCC1)C(C)(C)S (stereo not drawn) [Compound 11h] : 1
2) CC(C)(S)CNCCNC(CN1CCN(Cc2ccccc2)CC1)C(C)(C)S (stereo not drawn) [Compound 11w] : 13

# context switch: different compound, same Biological half-life in brain, First phase
What the record says about CCCCN(CC)CC(NCCNCC(C)(C)S)C(C)(C)S (stereo not drawn) [Compound 11n] : Biological half-life in brain, First phase is 17

====

# Biological half-life in brain, First phase (rate) listing for each entry below
- METHOD NOTES: Biodistribution in rabbits: biological half life in the brain by gamma camera imaging
- Assay type: in vivo, Japanese white rabbits (male)
- CONDITION PARAMETERS: rabbit, in vivo
Only the number, expressed in %, is required.

Below, each entry is followed by its recorded Biological half-life in brain, First phase (rate) result.
1. CC(C)(S)CNCCNC(CN1CCN(Cc2ccccc2)CC1)C(C)(C)S (stereo not drawn) [Compound 11w] : 60
2. CN1CCN(CC(NCCNCC(C)(C)S)C(C)(C)S)CC1 (stereo not drawn) [Compound 11i] : 50

What the record says about CC(C)(S)CNCCNC(CN1CCC(c2ccccc2)CC1)C(C)(C)S (stereo not drawn) [Compound 11x] : Biological half-life in brain, First phase (rate) is 46

====

- METHOD NOTES: Biodistribution in rabbits: biological half life in the brain by gamma camera imaging
- Assay type: in vivo, Japanese white rabbits (male)
- CONDITION PARAMETERS: rabbit, in vivo
VALUE KIND: Biological half-life in brain, Second phase (rate)

Below, each entry is followed by its recorded Biological half-life in brain, Second phase (rate) result.
1. CCCCN(CC)CC(NCCNCC(C)(C)S)C(C)(C)S (stereo not drawn) [Compound 11n] : 58%
2. CC(C)(S)CNCCNC(CN1CCC(c2ccccc2)CC1)C(C)(C)S (stereo not drawn) [Compound 11x] : 54%

# context switch: different molecule, same Biological half-life in brain, Second phase (rate)
What the record says about CC(C)(S)CNCCNC(CN1CCOCC1)C(C)(C)S (stereo not drawn) [Compound 11k] : Biological half-life in brain, Second phase (rate) is 61%
